Collected IC50 for UniProt P30530 across several studies; compounds listed below.
Sequence (P30530 whole entry): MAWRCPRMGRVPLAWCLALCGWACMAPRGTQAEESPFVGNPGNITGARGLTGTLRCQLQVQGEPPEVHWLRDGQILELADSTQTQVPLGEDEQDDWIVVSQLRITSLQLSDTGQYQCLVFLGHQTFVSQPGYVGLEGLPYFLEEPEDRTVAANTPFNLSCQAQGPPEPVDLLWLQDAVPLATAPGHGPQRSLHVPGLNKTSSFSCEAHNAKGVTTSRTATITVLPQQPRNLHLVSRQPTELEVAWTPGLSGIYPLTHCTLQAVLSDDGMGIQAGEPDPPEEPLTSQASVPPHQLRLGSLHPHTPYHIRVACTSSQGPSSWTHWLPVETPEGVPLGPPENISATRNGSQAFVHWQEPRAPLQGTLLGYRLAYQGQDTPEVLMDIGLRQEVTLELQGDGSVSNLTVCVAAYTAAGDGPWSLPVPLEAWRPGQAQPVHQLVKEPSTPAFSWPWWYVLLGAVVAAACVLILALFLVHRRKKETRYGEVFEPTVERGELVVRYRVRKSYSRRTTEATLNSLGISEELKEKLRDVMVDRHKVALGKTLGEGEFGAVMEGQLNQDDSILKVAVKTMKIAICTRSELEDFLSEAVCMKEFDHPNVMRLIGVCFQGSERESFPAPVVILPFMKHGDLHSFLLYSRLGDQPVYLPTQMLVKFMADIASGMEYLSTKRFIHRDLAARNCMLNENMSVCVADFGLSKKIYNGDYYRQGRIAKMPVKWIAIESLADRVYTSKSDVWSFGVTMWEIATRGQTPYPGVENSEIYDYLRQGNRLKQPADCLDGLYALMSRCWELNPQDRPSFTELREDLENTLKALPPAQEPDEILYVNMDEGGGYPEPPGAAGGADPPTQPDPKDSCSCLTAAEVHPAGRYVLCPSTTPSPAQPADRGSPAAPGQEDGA

See these solved cases before continuing.
> print(dat)
                           molecular.string  parameter  observed.measurement
1  Cn1cc(-c2cnccc2Oc2ccc(NC(=O)c3c4c(cn(-c5ccccc5)c3=O)C(=O)CCC4)cc2)cn1       IC50             > 1000 nM
2  Nc1nc(Nc2ccc(OCCN3CCCCC3)cc2)n(-c2ccccc2)n1       IC50            > 20000 nM
3  CONC(=O)c1cn(-c2ccc3c(c2)CCC3)c2nc(Nc3ccc(C4CCN(C)CC4)cc3)ncc2c1=O       IC50             > 1000 nM

Below: the item to evaluate.
Exam item: Report IC50 for CC(C)n1cc(C(=O)Nc2cc(F)c(-c3c[nH]c4ncnc(N)c34)cc2F)c(=O)c(-c2ccc(F)cc2)c1 please.
Marked response: < 0.2 nM
